- experimental-target: HLA-A*26:01
- experiment: IEDB peptide-MHC binding, purified MHC/direct/fluorescence; filed as Kd, often an IC50 or EC50 that approximates it; bounds were set here for any values at or beyond the usual limits of such assays
- cond: source organism: Orthohantavirus andesense
# pKd per entry
Please report pKd as the negative decimal logarithm of the molar concentration, giving only the number.

Enter pKd (test system HLA-A*26:01) for AVEDFLAFF 5.86

Enter measured pKd, system HLA-A*26:01, for the sequence shown: DAVEDFLAF 7.90

====

- experimental-target: HLA-A*11:01
- experiment: IEDB peptide-MHC binding, purified MHC/competitive/radioactivity; filed as Kd, often an IC50 or EC50 that approximates it; bounds were set here for any values at or beyond the usual limits of such assays
- cond: source organism: Mammarenavirus brazilense
Listing of entries alongside the reported pKd.
Reminder that pKd is minus the log10 of a molar concentration.

> print(dat)
   seq.string  experimental.target  observed.value
1  GSFQEFRSNH          HLA-A*11:01            5.15

Consider the additional sequence presented here.
For the sequence MVNHSTYYVH , give its measured pKd value. 5.20

====

- experimental-target: HLA-B*07:02
- experiment: IEDB peptide-MHC binding, purified MHC/competitive/radioactivity; filed as Kd, often an IC50 or EC50 that approximates it; bounds were set here for any values at or beyond the usual limits of such assays
- cond: source organism: Triticum aestivum
measure: Kd (nM)
Write the number in nM without appending the unit.

Report Kd, nothing else, for this sequence: IPPYCTIAPV 940

====

- experimental-target: HLA-A*02:03
- experiment: IEDB peptide-MHC binding, purified MHC/competitive/radioactivity; filed as Kd, often an IC50 or EC50 that approximates it; bounds were set here for any values at or beyond the usual limits of such assays
- cond: source organism: Dengue virus 4 Dominica/814669/1981
measure: Kd (µM)
Number only, in µM; omit the unit.

Hello, please tell me recorded Kd for this one: TLATGPILTL 0.0121

====

- experimental-target: HLA-A*01:01
- experiment: IEDB peptide-MHC binding, purified MHC/direct/fluorescence; filed as Kd, often an IC50 or EC50 that approximates it; bounds were set here for any values at or beyond the usual limits of such assays
- cond: source organism: West Nile virus
measure: Kd (nM)
The response must be a number in nM with no trailing unit.

Name the recorded Kd of the item LTKEEFTRY in your answer. 1150

====

- experimental-target: HLA-B*15:17
- experiment: IEDB peptide-MHC binding, purified MHC/competitive/fluorescence; filed as Kd, often an IC50 or EC50 that approximates it; bounds were set here for any values at or beyond the usual limits of such assays
- cond: source organism: Brucella abortus S19
measure: Kd

Using the record for RFRCVGPAP , state its measured Kd. ≥ 20 µM

====

Measured pKd by item
- experimental-target: HLA-A*69:01
- experiment: IEDB peptide-MHC binding, purified MHC/direct/fluorescence; filed as Kd, often an IC50 or EC50 that approximates it; bounds were set here for any values at or beyond the usual limits of such assays
- cond: source organism: Coxiella burnetii
pKd: −log10 of the molar value.

> print(dat)
   seq.string  measure  observed.value
1   HEGDIVPLF      pKd          ≤ 4.70

# context switch: different sequence, same pKd
Report measured pKd on HLA-A*69:01; entry: VPPESVEAA ≤ 4.70

====

- experimental-target: HLA-B*39:01
- experiment: IEDB peptide-MHC binding, purified MHC/competitive/fluorescence; filed as Kd, often an IC50 or EC50 that approximates it; bounds were set here for any values at or beyond the usual limits of such assays
- cond: source organism: Burkholderia vietnamiensis G4
pKd: −log10 of the molar value.
measure: pKd

For the sequence PLFKRGWRL , report pKd. ≤ 4.70

====

- experimental-target: HLA-B*40:02
- experiment: IEDB peptide-MHC binding, purified MHC/competitive/radioactivity; filed as Kd, often an IC50 or EC50 that approximates it; bounds were set here for any values at or beyond the usual limits of such assays
- cond: source organism: Mammarenavirus mopeiaense
measure: Kd

Query Kd for PELLNNQFGT ≥ 27.2 µM

====

- experimental-target: HLA-A*11:01
- experiment: IEDB peptide-MHC binding, purified MHC/direct/fluorescence; filed as Kd, often an IC50 or EC50 that approximates it; bounds were set here for any values at or beyond the usual limits of such assays
- cond: source organism: Camelpox virus CMS
pKd: −log10 of the molar value.
measure: pKd

Identify measured pKd obtained with HLA-A*11:01 for VIARTHTAL . ≤ 4.70

====

- experimental-target: HLA-A*03:01
- experiment: IEDB peptide-MHC binding, purified MHC/direct/fluorescence; filed as Kd, often an IC50 or EC50 that approximates it; bounds were set here for any values at or beyond the usual limits of such assays
- cond: source organism: Shigella dysenteriae
measure: Kd

Item AEMRETHWL : provide Kd ≥ 20 µM

====

Items are presented alongside their recorded Kd.
- experimental-target: HLA-A*68:01
- experiment: IEDB peptide-MHC binding, purified MHC/competitive/radioactivity; filed as Kd, often an IC50 or EC50 that approximates it; bounds were set here for any values at or beyond the usual limits of such assays
- cond: source organism: SARS coronavirus Tor2
Express your answer in nM, writing the number without its unit.

> print(dat)
   seq.string  measure  observed.value
1  SFYVYANGGR       Kd             789
2  KLSAGVEFLK       Kd             101

Annotate the sequence KLFAAETLK with its measured Kd. 399

Please report the measured Kd for KLSYGIATVR 89

====

- experimental-target: HLA-A*01:01
- experiment: IEDB peptide-MHC binding, purified MHC/direct/fluorescence; filed as Kd, often an IC50 or EC50 that approximates it; bounds were set here for any values at or beyond the usual limits of such assays
- cond: source organism: Pseudomonas putida
measure: Kd

Identify measured Kd obtained with HLA-A*01:01 for RVWRGEQGK . ≥ 20 µM

====

- experimental-target: HLA-A*31:01
- experiment: IEDB peptide-MHC binding, purified MHC/competitive/radioactivity; filed as Kd, often an IC50 or EC50 that approximates it; bounds were set here for any values at or beyond the usual limits of such assays
- cond: source organism: Dengue virus 4 Dominica/814669/1981
measure: Kd (nM)
Write down the numeric answer in nM and omit the unit.

Check the records and state Kd for MFGGVSWMIR 7.52

====

- experimental-target: HLA-B*44:02
- experiment: IEDB peptide-MHC binding, purified MHC/direct/fluorescence; filed as Kd, often an IC50 or EC50 that approximates it; bounds were set here for any values at or beyond the usual limits of such assays
- cond: source organism: Brucella abortus 2308
pKd: −log10 of the molar value.
The entries below come with measured pKd values attached.

> print(dat)
   seq.string  observed.value
1   KRASGDPYF          ≤ 4.70

// next item, pKd requested
Please list pKd recorded for the sequence IEVKFHPIL ≤ 4.70

====

- experimental-target: HLA-B*07:02
- experiment: IEDB peptide-MHC binding, purified MHC/direct/fluorescence; filed as Kd, often an IC50 or EC50 that approximates it; bounds were set here for any values at or beyond the usual limits of such assays
- cond: source organism: Giardia lamblia ATCC 50803
measure: Kd

Known results for sequences:
> print(dat)
   seq.string  observed.value
1   SHSIPNGLL         ≥ 20 µM
2   ETESVNSNY         ≥ 20 µM

Now for another entry.
Give Kd for WLKEKHEEL ≥ 20 µM

====

- experimental-target: HLA-A*11:01
- experiment: IEDB peptide-MHC binding, purified MHC/direct/fluorescence; filed as Kd, often an IC50 or EC50 that approximates it; bounds were set here for any values at or beyond the usual limits of such assays
- cond: source organism: Escherichia coli O6
measure: Kd (nM)
Supply the numeric figure in nM, leaving out any unit text.

Determine from records and report Kd for KTTLFHTFK 16.2

====

- experimental-target: HLA-B*46:01
- experiment: IEDB peptide-MHC binding, purified MHC/direct/fluorescence; filed as Kd, often an IC50 or EC50 that approximates it; bounds were set here for any values at or beyond the usual limits of such assays
- cond: source organism: Mammarenavirus lassaense
pKd: −log10 of the molar value.
measure: pKd

Return pKd for the following sequence: IEEVMNIVL ≤ 4.70

====

- experimental-target: HLA-B*08:01
- experiment: IEDB peptide-MHC binding, purified MHC/direct/fluorescence; filed as Kd, often an IC50 or EC50 that approximates it; bounds were set here for any values at or beyond the usual limits of such assays
- cond: source organism: Rickettsia sibirica
measure: Kd

Answer with reported Kd of ASDRISGIL ≥ 20 µM

====

- experimental-target: HLA-A*26:01
- experiment: IEDB peptide-MHC binding, purified MHC/competitive/radioactivity; filed as Kd, often an IC50 or EC50 that approximates it; bounds were set here for any values at or beyond the usual limits of such assays
- cond: source organism: Dengue virus 2 Jamaica/1409/1983
measure: pKd
Value format note: pKd is -log10 of concentration (mol/L); just state the number.

For orientation, consider the following solved cases.
> print(dat)
   seq.string  experimental.target  observed.value
1  ETACLGKSYA          HLA-A*26:01            6.79
2  FTIMAAILAY          HLA-A*26:01            7.26

# ---- query sequence ----
Provide pKd value for the following sequence: ELMMATIGIA 7.19
